# Tested on: TK-10 renal
Possible outcomes: 1 (yes) for active, 0 (no) for inactive

>>> class_name("COc1cc(/C=C2\\CN(S(=O)(=O)c3ccc(C)cc3)C/C(=C\\c3cc(CN4CCOCC4)c(O)c(OC)c3)C2=O)cc(CN2CCOCC2)c1O")
"0 (no)"
>>> class_name("CCN(CC)CCOc1cccc2nc3c(cc12)Cn1c-3cc2c(c1=O)COC(=O)C2(O)CC (stereo not given)")
"0 (no)"
>>> class_name("CCO.CCO.Oc1ccc(Nc2ncns2)cc1.Oc1ccc(Nc2ncns2)cc1.[Ti]")
"0 (no)"
>>> class_name("Nc1ncc(-c2ccc3ncnc(N4CCc5ccc(Cl)cc54)c3c2)cn1")
"1 (yes)"
>>> class_name("O=C(c1ccccc1)c1c(C(F)(F)F)n([O-])c2ccc(F)cc2[n+]1=O")
"0 (no)"
>>> class_name("COc1ccc([As]=[As]c2ccc(OC)c(NCS(=O)(=O)O)c2)cc1NCS(=O)(=O)O (stereo not given)")
"0 (no)"
>>> class_name("OCc1cn(Cc2ccc(Cl)cc2)c2ccccc12")
"1 (yes)"
>>> class_name("O=C1c2ccccc2-c2c1c1ccc([N+](=O)[O-])cc1c(=O)n2CCCN1CCOCC1")
"0 (no)"
>>> class_name("Cc1ccc(/C=C2\\COc3ccc(O)c(O)c3C2=O)cc1")
"0 (no)"
>>> class_name("COc1ccc(-c2nn(C(=O)NCCN(C)C)cc2-c2ccncc2)cc1Cl")
"0 (no)"

* * *

# Tested on: IGROV1 ovarian
# experimental details: NCI tumour cell line growth inhibition, 48 h
Attribute: log10 TGI
reported property: log10 TGI (log10 of the value in µM)

>>> observed("COc1ccc([As]=[As]c2ccc(OC)c(NCS(=O)(=O)O)c2)cc1NCS(=O)(=O)O (configuration not stated)")
0.53
>>> observed("CCCCCCCCCc1c(Cl)nc(Cl)nc1Cl")
1.42
>>> observed("OCc1cn(Cc2ccc(Cl)cc2)c2ccccc12")
-0.15
>>> observed("O=c1cnnc2sc(=S)[nH]n12")
1.87
>>> observed("CCOC(=O)C1=C(C)N=C2SC=C(c3ccccc3)N2[C@H]1c1cn[nH]c1-c1ccc(Cl)cc1")
0.88
>>> observed("CCOC(=O)C(Cc1c(C=O)[nH]c2ccccc12)(NC(=O)c1ccccc1)C(=O)OCC")
1.64
>>> observed("Cc1ccc(C2C(C(=O)C(C)(C)C)N2S(=O)(=O)c2ccc(C)cc2)cc1 (configuration not stated)")
1.67
>>> observed("Cn1nc(-c2ccccc2)c(C(=O)/C=C/c2ccc(F)cc2)c(N2CCCC2)c1=O")
1.70
>>> observed("CC(C)=Cc1cc2c(cc1O)CCC1C2CC[C@@]2(C)C1CC[C@@H]2O (some centres not stated)")
1.48
>>> observed("CS(=O)(=O)Nc1ccc(Nc2c3ccccc3nc3cc([N+](=O)[O-])ccc23)cc1")
0.71

* * *

# Test system: PC-3 prostate
# experimental details: NCI tumour cell line growth inhibition, 48 h
Attribute: TGI
reported property: TGI

>>> observed("C=C1C(=O)OC2C1C(=O)C/C(C)=C/CCC1(C)OC21 (centres undefined)")
"33.3 µM"
>>> observed("COc1ccc(O)c2c(=O)c3c(OC)cc4c(c3oc12)[C@@H]1C=CO[C@@H]1O4")
"> 100 µM"
>>> observed("Cc1csc(-n2nc(C)cc2C)n1")
"> 100 µM"
>>> observed("O=C(O)CCn1cnc2c(=S)nc[nH]c21")
"> 100 µM"
>>> observed("CCN(CC)c1ccc(C2=NN(C(C)=O)C(c3cc(OC)c(OC)c(OC)c3)C2)cc1 (centres undefined)")
"12.2 µM"
>>> observed("CCSC(=O)N1c2ccc(OC)cc2C=CC1C#N (centres undefined)")
"> 1000 µM"
>>> observed("COc1ccc2c(c1)OCC1Cc3cc4c(cc3OC21)OCO4 (centres undefined)")
"> 100 µM"
>>> observed("O=C(CI)OCC(COC(=O)CI)OC(=O)CI")
"20.7 µM"
>>> observed("CC(C)Oc1c(N(Cc2ccccc2)c2ccccc2C2SCCCS2)c(=O)c1=O")
"35.7 µM"
>>> observed("CN(C)CCCNC(=O)c1c(-c2cccnc2)cnc2ccccc12")
"> 100 µM"
>>> observed("CC(=O)N/N=C1/NN(C(C)=O)C2(S1)C(=O)Nc1ccc(C)cc12 (centres undefined)")
"> 100 µM"
>>> observed("CC(=O)Nc1nc2ncc(C=O)nc2c(=O)[nH]1")
"> 100 µM"
>>> observed("C[C@H](NC1=CC(=O)C(N[C@@H](C)[C@H](O)c2ccccc2)=CC1=O)[C@H](O)c1ccccc1")
"> 100 µM"
>>> observed("Cc1[nH]c(-c2ccccc2)c(O)c1C(=O)OC12CC3CC(CC(C3)C1)C2")
"28.9 µM"
>>> observed("CC=C(CBr)CCC(Br)C(C)(C)Cl (mixture of isomers)")
"> 10 µM"
>>> observed("COc1cc2c(cc1OC)[C@@H]1C(=O)c3cc4c(cc3[C@@H]1N(CCN(C)C)C2=O)OCO4")
"13.3 µM"
>>> observed("OCCN(CCO)CCn1cnc2c(NCc3ccccc3)ncnc21")
"> 100 µM"
>>> observed("COC(=O)C1(Cc2ccccc2)Cc2cc3c(cc2C1)CCC3")
"> 100 µM"
>>> observed("CCCCN(CCCC)CC(O)c1cc(-c2ccc(Cl)c(Cl)c2)nc2c(Cl)cc(Cl)cc12 (centres undefined)")
"> 100 µM"
>>> observed("COc1cc(/C=C2\\CN(S(=O)(=O)c3ccc(C)cc3)C/C(=C\\c3cc(CN4CCOCC4)c(O)c(OC)c3)C2=O)cc(CN2CCOCC2)c1O")
"> 100 µM"
>>> observed("COc1cc(C(=O)N2CCN(c3ccccn3)CC2)c(N)cc1OCc1ccccc1")
"> 100 µM"
>>> observed("COc1ccc([As]=[As]c2ccc(OC)c(NCS(=O)(=O)O)c2)cc1NCS(=O)(=O)O (centres undefined)")
"11.7 µM"
>>> observed("CC(C)=Cc1cc2c(cc1O)CCC1C2CC[C@@]2(C)C1CC[C@@H]2O (some centres undefined)")
"28.6 µM"
>>> observed("COc1ccc(N=NC(=O)NC(CC(C)C)C(=O)NC(Cc2ccccc2)C(=O)O)cc1 (centres undefined)")
"> 100 µM"
>>> observed("CCN(Cc1cccnc1)c1ccc(CO)c(Cl)c1")
"> 100 µM"
>>> observed("N#CCC(=O)N/N=C(\\CCN1CCCC1)CC(c1ccccc1)c1c(O)c2ccccc2oc1=O (centres undefined)")
"> 100 µM"
>>> observed("O=C1c2ccccc2-c2c1c1ccc([N+](=O)[O-])cc1c(=O)n2CCCN1CCOCC1")
"> 100 µM"
>>> observed("Cc1cc2c(cc1C)[n+](=O)c(C(=O)C(C)(C)C)c(C(F)(F)F)n2[O-]")
"39.2 µM"
>>> observed("C=C(C)c1ccccc1 (tested in a mixture with another compound)")
"> 100 µM"
